Listed below: log10 IC50 values for each entry.
# study target: Human recombinant PDE2A (hPDE2A) (Homo sapiens)
# Construct: His tag (inferred from metal chelate purification); made in house; host or cells: Sf9 insect cells (baculovirus)
# Sequence (O00408 whole entry): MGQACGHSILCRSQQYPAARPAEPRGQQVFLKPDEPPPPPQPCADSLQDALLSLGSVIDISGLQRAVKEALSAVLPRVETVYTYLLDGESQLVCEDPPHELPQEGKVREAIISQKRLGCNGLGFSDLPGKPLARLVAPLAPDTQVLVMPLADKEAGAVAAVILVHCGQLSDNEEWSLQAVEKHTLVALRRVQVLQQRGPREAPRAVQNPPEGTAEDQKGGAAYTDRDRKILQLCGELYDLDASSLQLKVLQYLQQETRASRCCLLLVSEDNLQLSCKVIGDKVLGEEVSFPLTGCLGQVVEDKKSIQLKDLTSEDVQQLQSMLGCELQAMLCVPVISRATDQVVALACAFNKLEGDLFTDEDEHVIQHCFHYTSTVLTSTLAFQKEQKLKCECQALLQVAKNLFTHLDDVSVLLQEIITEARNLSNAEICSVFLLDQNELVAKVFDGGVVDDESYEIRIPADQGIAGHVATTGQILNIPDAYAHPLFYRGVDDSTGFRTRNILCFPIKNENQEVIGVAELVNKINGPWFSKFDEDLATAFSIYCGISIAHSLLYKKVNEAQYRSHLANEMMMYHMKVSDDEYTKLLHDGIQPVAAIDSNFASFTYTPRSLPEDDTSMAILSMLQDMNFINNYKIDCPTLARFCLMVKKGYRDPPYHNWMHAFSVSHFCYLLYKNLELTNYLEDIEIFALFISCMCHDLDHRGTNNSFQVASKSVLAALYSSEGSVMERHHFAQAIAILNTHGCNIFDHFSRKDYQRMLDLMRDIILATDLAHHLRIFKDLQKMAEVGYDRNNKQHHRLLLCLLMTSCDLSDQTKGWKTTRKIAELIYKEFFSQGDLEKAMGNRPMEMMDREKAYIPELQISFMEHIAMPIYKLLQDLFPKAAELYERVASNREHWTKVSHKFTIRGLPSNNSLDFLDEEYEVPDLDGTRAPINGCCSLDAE
# procedure details: In vitro assay PDE2A (SPA, 3H-cGMP hydrolysis)
# Assay type: biochemical
# conditions used: human recombinant PDE2A, 10 μM cGMP substrate; read-out: hPDE2A pIC50 (converted)
Could you please treat all values as log10 of IC50 in nM?

> print(dat)
                                   compound  measured.value
1  COc1nc(N)ncc1C(=O)N1CC[C@@H](C)[C@H](c2cc(C(F)F)nc3ncnn23)C1 [Compound 38]            0.79

Next up:
QUERY: # assay system Human recombinant PDE2A (hPDE2A) (Homo sapiens): give log10 IC50 of COc1cc(C(=O)N2CC[C@@H](C)[C@H](c3cc(C(F)F)nc4ncnn34)C2)cc(C(C)C)n1 [Compound 122]
RESULT: 0.27

Recorded values, source patent US10947242B2.
